Here is a set of compounds with reported IC50 for Vasopressin V2 receptor (Homo sapiens, UniProt P30518), compiled from the literature.
Your answer should be a plain number; it is taken to be in nM.

Consider the compound shown here: Cc1cc(C(=O)N2Cc3ccc(C(=O)N(C)Cc4cccnc4)n3Cc3ccccc32)ccc1-c1ccccc1C(F)(F)F What is its recorded IC50?
1130

I have this compound here, COc1ccc(S(=O)(=O)N2C(=O)C(c3cc(C)ccc3OC)(N3C[C@H](OCCCN(C)C)C[C@H]3C(=O)N(C)C)c3cc(Cl)ccc32)c(OC(F)(F)F)c1 (single isomer, unassigned) , and I need its recorded IC50.
3190

Reported IC50, compound C=CCN1CCN(C(=O)c2ccc3n2Cc2ccccc2N(C(=O)c2ccc(-c4ccccc4C)c(C)c2)C3)CC1 : ____
1820

Fill in the blank: the reported IC50 of COc1cc(-c2ccccc2C(F)(F)F)c(OC)cc1C(=O)N1Cc2cccn2Cc2ccccc21 is ____.
605

So what's the measured IC50 for this one? COc1ccccc1-c1ccc(C(=O)N2Cc3ccc(C(=O)N(C)C[C@H](O)[C@@H](O)[C@H](O)[C@H](O)CO)n3Cc3ccccc32)cc1C
144

Could you tell me which IC50 is on file for COc1cc(-c2ccccc2C(F)(F)F)c(Cl)cc1C(=O)N1Cc2ccc(C(=O)N(C)C[C@H](O)[C@@H](O)[C@H](O)[C@H](O)CO)n2Cc2ccccc21 ?
227

Which IC50 reading was recorded for the compound COc1ccccc1-c1ccc(C(=O)N2Cc3ccc(C(=O)N4CCN(CCN5CCOCC5)CC4)n3Cc3ccccc32)cc1 ?
601

IC50 lookup needed for O=C(c1ccc(-c2cccc3ccccc23)cc1Cl)N1Cc2cccn2Cc2ccccc21 , thanks.
4.7
